Each entry below carries its recorded melting point.
value.type: melting point

{"compound": "O=S1(=O)NC2CCCN2c2ccc(Oc3cccc(-c4nnn[nH]4)c3)cc21 (centres undefined)", "value.type": "melting point", "assay.result": "266 to 272 °C"}
{"compound": "O=C1NC(Cc2c[nH]c3ccccc23)C(CCc2cc(C(F)(F)F)cc(C(F)(F)F)c2)N1CCN1CCOCC1 (centres undefined)", "value.type": "melting point", "assay.result": "207 °C"}
{"compound": "CC1=NC(NC(=O)Nc2cccc(C)c2)C(=O)N(CC(=O)C2CCCCC2)c2c(C)cccc21 (centres undefined)", "value.type": "melting point", "assay.result": "179 to 181 °C"}
{"compound": "FC(F)(F)c1ccccc1-c1nc(-c2ccccc2Cl)nn1CCCl", "value.type": "melting point", "assay.result": "66 to 68 °C"}
